Where do these numbers come from? They come from patent US20230192860A1.

- Tgt: T1, monovalent hVISTA-ECD with polyhistidine tail (SEQ ID NO: 325) (human, UniProt Q9H7M9 33-193)
- T1 construct: also called hVISTA-ECD 6-His tag; human VISTA
- Measurement description: SPR, mAb captured on Protein A chip, hVISTA injected, PBST pH 7.4, 37 C
Please go through the items and note down their Kd.
Give bare numbers, in nM.

Previously resolved entries follow.
Binder	Unit text	Recorded measurement
P1-077869 (P1-068748 D57K) (antibody, V domains shown, Reversion mutant of P1-068748 (Kabat names); captured on a Protein A chip) VH: QVQLVESGGGVVQPGRSLRLSCAASGFTFSHHAMHWVRQAPGKGLEWVAIIWYDGSNKDYADSVKGRFTISRDNSKNTLYLQMNSLRAEDTAVYYCARDSGFYDSYYFDYWGQGTLVTVSS VL: EIVLTQSPATLSLSPGERATLSCRASQSVSSSYLAWYQQKPGQAPRLLIYDASNRATGIPARFSGSGSGTDFTLTISSLEPEDFATYYCQQYNSYPYTFGQGTKLEIK	nM	980
P1-068748 (antibody, V domains shown, captured on a Protein A chip) VH: QVQLVESGGGVVQPGRSLRLSCAASGFTFSHHAMHWVRQAPGKGLEWVAIIWYDGSNDDYADSVKGRFTISRDNSKNTLYLQMNSLRAEDTAVYYCARDSGFYDSYYFDYWGQGTLVTVSS VL: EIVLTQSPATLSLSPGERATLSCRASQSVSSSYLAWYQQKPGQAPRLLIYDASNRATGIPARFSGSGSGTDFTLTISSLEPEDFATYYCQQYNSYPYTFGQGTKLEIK	nM	600

Here is another binder to look at.
Prompt: Returns the measured Kd for the input binder. Input: P1-077875 (P1-068748 H31S H32Y) (antibody, V domains shown, Reversion mutant of P1-068748 (Kabat names); captured on a Protein A chip) VH: QVQLVESGGGVVQPGRSLRLSCAASGFTFSSYAMHWVRQAPGKGLEWVAIIWYDGSNDDYADSVKGRFTISRDNSKNTLYLQMNSLRAEDTAVYYCARDSGFYDSYYFDYWGQGTLVTVSS VL: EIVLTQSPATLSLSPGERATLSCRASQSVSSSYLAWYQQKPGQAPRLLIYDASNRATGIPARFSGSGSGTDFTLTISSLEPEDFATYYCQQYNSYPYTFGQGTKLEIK
Response: 130
